assay-summary: NCI Yeast Anticancer Drug Screen. Data for the mlh1 rad18 strain (AID 175)
assay-conditions: S. cerevisiae mlh1 rad18 strain growth inhibition; at 5.0 µM (retest, dose inferred, filed as 0.5)
About 79,000 compounds went through this panel and 15% of them were active in at least one assay; those are over-represented in the sample as a whole. Calls of active or inactive are those of the source. No stated cut-off is given here; in the data, active means growth inhibition above about 70%; inactive means the rest.
Reply using exactly one outcome from True = active, False = inactive

Illustrative cases are given below, each with its answer.
- CC1OC(CC(=O)O)Cc2c1c(O)c1c(O)cc(-c3cc(=O)c4c(=O)c5c(c(=O)c=4c3=O)CC(CC(=O)O)OC5C)c(O)c1c2O (stereo not given): False
- Clc1ccc(COC(CN2CCOCC2)c2ccccc2)c(Cl)c1 (stereo not given): False
- O=C1c2ccccc2C(=O)c2sc(Nc3ccc(Cl)c(Cl)c3)nc21: True
- COC(=O)CSc1nc2ccccc2[nH]1: False
- O=[N+]([O-])c1cc(NC(=S)SCc2ccccc2)ccc1Cl: True
- Cc1c(O)c(Br)c(Br)c(Br)c1Br: True

What outcome does the record of this test show for CCOC(=O)C(=Cc1ccc(C(=O)OC)cc1)C(=O)OCC ?
False

What outcome does the record of this test show for CC(C)Cn1cnc2c(SCc3cccc(F)c3)nc(N)nc21 ?
False

What outcome does the record of this test show for CCCCCCCCCCOC(=O)c1cccnc1 ?
False

What outcome does the record of this test show for O=C1C=C(c2ccccc2)OC(c2ccccc2)C1 (stereo not given) ?
False

What outcome does the record of this test show for CC(=O)NNc1ccc(Cl)cc1[N+](=O)[O-] ?
False

What outcome does the record of this test show for CC[N+]1(C)CC2CCC(CC2)C1 (stereo not given) ?
False

What outcome does the record of this test show for O=S(=O)(OI(OI(OS(=O)(=O)C(F)(F)F)c1ccccc1)c1ccccc1)C(F)(F)F ?
True

What outcome does the record of this test show for COc1cccc(/C=C2\CCC(CN(C)C)C2=O)c1 (stereo not given) ?
False

What outcome does the record of this test show for CC(C)(C)C1CCC2c3c([nH]c4ccccc34)C3C(=O)N(c4ccc(C(=O)O)cc4)C(=O)C3C2C1 (stereo not given) ?
True

What outcome does the record of this test show for Cc1cccc(CC(C)(C)C)c1NC(=O)C(=O)C(C(=O)c1ccc2ccccc2c1)C1OC(=O)c2ccccc21 (stereo not given) ?
False

What outcome does the record of this test show for O=[N+]([O-])c1cc(C(F)(F)F)ccc1SSc1ccc(C(F)(F)F)cc1[N+](=O)[O-] ?
False

----------
So I've got a bunch of compounds here, and I need their growth inhibition values.
assay-summary: NCI Yeast Anticancer Drug Screen. Data for the sgs1 mgt1 strain (AID 161);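 further: 0% = growth of cultures given vehicle only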
assay-conditions: S. cerevisiae sgs1 mgt1 strain, at 5.0 µM (retest, dose inferred, filed as 0.5), active compounds read high
Compounds without any hit were thinned out: in the full panel of roughly 79,000, 15% have a hit.
Numbers only, in %.

- Cc1ccc(NC(=O)CCCC(=O)C(C#N)c2ccccc2C)cc1C (configuration not stated): -5
- O=C1c2c(Br)sc(Br)c2[C@@H](NC(=O)C(F)(F)F)C1Br (some centres not stated): 19
- CN(/N=C\c1cccc([N+](=O)[O-])c1)C(c1cccc([N+](=O)[O-])c1)N(C)/N=C/c1cccc([N+](=O)[O-])c1 (configuration not stated): 2
- O=C1c2cccc(O)c2C(=O)c2c(OC3OC(CO)C(O)C(O)C3O)cccc21 (configuration not stated): 4
- CCCCCCCCCCNC(=O)C[n+]1cccc(C(=O)NCc2ccccc2)c1: 5

List growth inhibition for every entry below, keeping the order given.
1. Cc1ccc2c(c1)-c1cc(C)ccc1C2(O)c1ccccc1
2. O=C(N/C(=C\c1nc2ccccc2s1)c1ccccc1O)c1ccccc1
3. CCOC(=O)c1ccc(O)c(C=O)c1
4. Cc1cc(Br)c(P(=O)(O)O)cc1[N+](=O)[O-]
5. Cn1cnc([N+](=O)[O-])c1S
6. C[C@@H]1CN(CC2COc3ccccc3O2)[C@@H](C)CN1CC1COc2ccccc2O1 (some centres not stated)
7. CC1N(O)C(c2ccccc2)C(c2ccccc2)=[N+]1[O-] (configuration not stated)

6
-16
-35
-3
0
84
16

List growth inhibition for every entry below, keeping the order given.
1. COC1=CC(=O)c2c(O)c3c(c(O)c2C1=O)C=C(C)OC3O (configuration not stated)
2. O=C1OC(C2OC(=O)C(=O)C2C(=O)c2ccc(Cl)cc2)C(C(=O)c2ccc(Cl)cc2)C1=O (configuration not stated)
3. Cn1cnc([N+](=O)[O-])c1Sc1nc2ccccc2s1
4. O=[N+]([O-])c1ccc(C2=Nn3c(nnc3-c3ccc(Cl)cc3)SC2)o1
5. BrCc1ccc([Si](c2ccccc2)(c2ccccc2)c2ccc(CBr)cc2)cc1
6. S=c1n(-c2ccc(Cl)cc2)c2nc3ccccc3nc(/c2=N\Nc2cc(Cl)ccc2Cl)n1-c1ccc(Br)cc1
7. CCN(CC)C1Oc2cc3c(cc2C(c2ccc(OC)cc2)C1C)OCO3 (configuration not stated)

1: -27; 2: 1; 3: 51; 4: 29; 5: -15; 6: 0; 7: -48

List growth inhibition for every entry below, keeping the order given.
1. COc1cc(C=O)c(Cl)cc1O
2. Cc1cc(=Nc2ccc3c(c2)c(N)cc(C)[n+]3C)nc(N)n1C
3. c1ccc(OCCCOc2ccccc2)cc1

[1, 78, 4]

----------
assay-summary: NCI Yeast Anticancer Drug Screen. Data for the mlh1 rad18 strain (AID 175)
assay-conditions: S. cerevisiae mlh1 rad18 strain growth inhibition; at 50.0 µM (retest, dose inferred, filed as 5.0); active compounds read high
About 79,000 compounds went through this panel and 15% of them were active in at least one assay; those are over-represented in the sample as a whole.
So I've got a bunch of compounds here, and I need their growth inhibition values.
One number for each entry, in %.

* COc1cc2c(cc1O)CCN[C@@]21CS[C@H]2c3c(OC(C)=O)c(C)c4c(c3C(COC1=O)N1C2C2c3c(cc(C)c(OC)c3O)CC([C@@H]1O)N2C)OCO4 (stereo not given in full) | 99
* CC(=O)Nc1ccc2c(ccc3cccc[n+]32)c1 | -3
* C(=C/c1cnnc2ccccc12)/c1ccccn1 | 42
* N=C1c2ccccc2-c2ccccc21 | 21

Need growth inhibition, item CC1=CC(C2/C(=N/O)C=C(C)CC2(C)C)C(O)C(C)(C)C1 (stereo not given)
98

----------
assay-summary: NCI Yeast Anticancer Drug Screen. Data for the mec2-1 strain (AID 157)
assay-conditions: S. cerevisiae mec2-1 strain, at 50.0 µM (retest, dose inferred, filed as 5.0), active compounds read high
Protocol: Growth inhibition of yeast strains with defined genetic alterations is measured as a screen for potential anti-cancer activity. Selected strains with alterations in DNA damage repair or cell cycle control were exposed to compounds and growth inhibition was measured relative to vehicle treated controls. The strain used in this assay is mec2-1
About 79,000 compounds went through this panel and 15% of them were active in at least one assay; those are over-represented in the sample as a whole.
So I've got a bunch of molecules here, and I need their growth inhibition values.
Numbers only, in %.

Worked examples follow.
* O=C1/C(=C\c2ccc(Cl)cc2)SC2SC=C(c3ccc([N+](=O)[O-])cc3)N12 (configuration not stated) | 94
* O=C(NCCCNCCCCNCCCNC(=O)c1cc(-c2ccccc2)nc2ccccc12)c1cc(-c2ccccc2)nc2ccccc12 | 99

List growth inhibition for every entry below, keeping the order given.
1. CCCCOC(=O)C(C)OC(=O)NNc1ccccc1 (configuration not stated)
2. NC(=S)N/N=C1\CCCCc2ccccc21
3. CC1=C(C(=O)Nc2ccccc2)C(c2cccc3ccccc23)C(C(=O)Nc2ccccc2)=C(C)N1
4. O=C1CC(c2ccccc2Cl)C(c2ccccc2Cl)C1 (configuration not stated)

1. 12
2. 83
3. 51
4. 98

----------
So I've got a bunch of compounds here, and I need their growth inhibition values.
assay-summary: NCI Yeast Anticancer Drug Screen. Data for the cln2 rad14 strain (AID 165);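 further: 0% = growth equal to vehicle treated cultures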
assay-conditions: S. cerevisiae cln2 rad14 strain, at 5.0 µM (retest, dose inferred, filed as 0.5), active compounds read high
Method: Growth inhibition of yeast strains with defined genetic alterations is measured as a screen for potential anti-cancer activity. Selected strains with alterations in DNA damage repair or cell cycle control were exposed to compounds and growth inhibition was measured relative to vehicle treated controls. The strain used in this assay is cln2 rad14
About 79,000 compounds went through this panel and 15% of them were active in at least one assay; those are over-represented in the sample as a whole.
Numbers only, in %.

Worked examples follow.
- Nc1c(C(=O)Nc2ccccc2)[n+]([O-])c2ccccc2[n+]1[O-]: -8
- COc1c(Br)c(=O)n(C)c(=O)n1C: -4
- CCNC(=S)NC1CCCCCCCCCCC1: 51
- O=C1CC2Sc3ccccc3N=C2N1c1ccc(Cl)cc1Cl (stereo not given): 34

List growth inhibition for every entry below, keeping the order given.
1. CCC[CH2][Sn]([CH2]CCC)([O]C(=O)c1cc(F)cc(F)c1)[O][Sn]([CH2]CCC)([CH2]CCC)[O]C(=O)c1cc(F)cc(F)c1
2. Cc1ccccc1P(=O)(c1ccccc1C)c1ccccc1C
3. O=S(=O)(C#Cc1ccccc1)c1ccccc1

1: 30; 2: 11; 3: 7

List growth inhibition for every entry below, keeping the order given.
1. N#CS/C=C/SC#N
2. O=C1c2ccccc2C(=O)C2(C(c3ccccc3)c3ccccc3)N=NCC12 (stereo not given)
3. CCOC(=O)CC1(C)C(=O)CCCC1=O
4. CCC(N)C(O)C(C)C (stereo not given)

1. 99
2. 5
3. 0
4. -2

List growth inhibition for every entry below, keeping the order given.
1. CN(/N=C\c1cccc([N+](=O)[O-])c1)C(c1cccc([N+](=O)[O-])c1)N(C)/N=C/c1cccc([N+](=O)[O-])c1 (stereo not given)
2. COc1cc[c]([Sn]([c]2ccc(OC)cc2)([c]2ccc(OC)cc2)[c]2ccc(OC)cc2)cc1
3. Cc1[nH]nc(C(=O)N/N=C/c2ccccc2Cl)c1N=NN(C)C
4. CN(C)c1ccc(C2(c3ccc(N(C)C)cc3)OC(=O)c3ccccc32)cc1

[0, -9, 5, -5]
